# Test system: HT29 colon
# assay.text: NCI tumour cell line growth inhibition, 48 h
assay.endpoint: TGI

- CCOc1cc2c(cc1O)/C(=N/NS(=O)(=O)c1ccc(C)cc1)C[C@@H]1[C@@H]2CC[C@]2(C)[C@@H](O)CC[C@@H]12: > 100 µM

Next, consider the following compound.
Given the entry C=CCNC(=O)NCCCC(NC(C)=O)C(=O)NCc1ccccc1 (stereo unspecified) , report its measured TGI.
> 100 µM

---

# Test system: EKVX NSCLC
# assay.text: NCI tumour cell line growth inhibition, 48 h
assay.endpoint: TGI

* O=C(NN1C(=O)CSC1c1ccc(C(F)(F)F)cc1)c1ccncc1 (stereo not given) | > 100 µM

Form: Entry = O=C1NC2C=CN(Cc3ccccc3)C=C2C(=O)N2CCCC12 (stereo not given) | System = EKVX NSCLC | TGI = ____
> 100 µM

Form: Entry = c1ccc2c(c1)nc1n2C2CCC(C2)N1 (stereo not given) | System = EKVX NSCLC | TGI = ____
> 10 µM

Form: Entry = CSc1ccccc1C#Cc1ccccc1C#CCCCCO | System = EKVX NSCLC | TGI = ____
34.4 µM

Form: Entry = CC(C)/C(Cl)=N\OC(=O)Nc1ccc(F)cc1F | System = EKVX NSCLC | TGI = ____
13.8 µM

---

# Tested on: SR leukemia
# assay.text: NCI tumour cell line growth inhibition, 48 h
Property: TGI; scope: individual molecules

• O=c1oc2c(ccc3ccccc32)cc1C1=CSC2=NCCN12 = > 100 µM
• O=C1CCCCC/C1=C\c1ccc(Cl)cc1 = > 100 µM

Next, consider the following molecule.
Given the entry N.N.NCCCCCCN.O=C([O-])CC(=O)[O-].O=C([O-])CC(=O)[O-].[Pt+4].[Pt+4] , report its measured TGI.
> 100 µM

---

# System: CCRF-CEM leukemia
# assay.text: NCI tumour cell line growth inhibition, 48 h
Property: TGI; scope: individual compounds

* NNCCc1n[nH]c(=O)n1N | > 100 µM
* CC1(C)CC[C@]2(C(=O)N3CCOCC3)CC[C@]3(C)C(=CC[C@@H]4[C@@]5(C)C/C(=C/c6ccncc6)C(=O)C(C)(C)[C@@H]5CC[C@]43C)[C@@H]2C1 | > 100 µM
* c1ccc(C2OCCO2)c(OCCOc2cc(OCCOc3ccccc3C3OCCO3)c(OCCOc3ccccc3C3OCCO3)cc2OCCOc2ccccc2C2OCCO2)c1 | > 100 µM
* COc1cc(C2CC(c3ccc(N(C)C)cc3)=NN2C(C)=O)cc(OC)c1OC (centres undefined) | > 100 µM
* O=c1[nH]c(-c2ccccc2)nc2c1sc1nc3ccccc3n12 | > 100 µM
* O=C1NC(=O)C(COCc2ccccc2)C2=C1SCCC2 (centres undefined) | > 100 µM
* COC(=O)CC(=O)Nc1sccc1S(=O)(=O)c1ccccc1 | > 100 µM
* Nc1nc(N)c(N=O)c(OCC2CCCCC2)n1 | > 100 µM

Given the entry CCOP(=O)(CN=C(c1ccccc1)c1ccccc1)OCC , report its measured TGI.
> 100 µM

Given the entry Cc1ccc(Sc2ccc(C)cc2[N+](=O)[O-])c([N+](=O)[O-])c1 , report its measured TGI.
> 100 µM

Given the entry CCOc1cc2c(cc1OC(C)=O)C(=O)CC[C@H]1C3CC[C@H](OC(C)=O)[C@@]3(C)CC[C@H]21 (some centres undefined) , report its measured TGI.
> 100 µM

Given the entry O=C1NC2C=CN(Cc3ccccc3)C=C2C(=O)N2CCCC12 (centres undefined) , report its measured TGI.
> 100 µM

Given the entry Nc1n[nH]c2ccc([C@@H]3Nc4ccc5[nH]ncc5c4[C@H]4C5C=CC(C5)[C@@H]34)cc12 (some centres undefined) , report its measured TGI.
> 55.6 µM
